Values compiled from ChEMBL document CHEMBL5506039.

Assay: Metabolic stability in pre-warmed pooled mouse liver microsomes assessed as half life at 1 uM measured upto 60 mins by LC-MS analysis
Assay type: ADME, Microsome
ASSAY METRIC: half-life at 1 µM

* COc1ccc(Oc2ccc(N/C=C3\N=C(c4ccc[nH]4)C4=C3CCCC4)cc2)cc1.Cl | > 60 min
* Cl.FC(F)(F)Oc1ccc(OC2=CC(c3ccc[nH]3)=N/C2=C\NC23CC4CC(CC(C4)C2)C3)cc1 | > 60 min

Return reported half-life at 1 µM values for all items listed beneath this line.
1. CCc1c(C)[nH]c(C2=N/C(=C\NC34CC5CC(CC(C5)C3)C4)C(C)=C2C)c1C.Cl
2. CCc1ccc(C2=N/C(=C\NC3CCCCCC3)C(C)=C2C)[nH]1.Cl
3. Cl.Fc1cc(F)cc(OC2=CC(c3ccc[nH]3)=N/C2=C\NC23CC4CC(CC(C4)C2)C3)c1
4. CCc1c[nH]c(C2=N/C(=C\NC3CCCCCC3)C(C)=C2C)c1.Cl
5. COC1=CC(c2ccc(Cc3ccc(OC)cc3)[nH]2)=N/C1=C\NC12CC3CC(CC(C3)C1)C2.Cl
6. COC1=CC(c2ccc[nH]2)=N/C1=C\Nc1ccc(Oc2ccc(C)cc2)cc1

1. 29 min
2. > 60 min
3. > 60 min
4. 11 min
5. > 60 min
6. 46.9 min

---

Assay: Cytotoxicity against mouse J774.A1 cells assessed as reduction in cell survival measured after 96 hrs by SYBR Green II dye based analysis
Assay type: toxicity
ASSAY METRIC: EC50 at 96 h

Worked cases, EC50 at 96 h given:
* CCc1ccc(C2=N/C(=C\NC3CCCCCCC3)C(C)=C2C)[nH]1.Cl | 573 nM
* CC1=C(C)/C(=C/NC2CCCCCC2)N=C1c1ccc[nH]1.Cl | 908 nM
* COC1=CC(c2ccc(Cc3ccc(OC)cc3)[nH]2)=N/C1=C\NC1CCCCCC1.Cl | 959 nM
* FC(F)(F)Oc1ccc(OC2=CC(c3ccc[nH]3)=N/C2=C\NCC2CCCCCC2)cc1 | 717 nM

Each of the following entries comes with a recorded value; kindly state EC50 at 96 h for each.
1. Cl.FC(F)(F)Oc1ccc(OC2=CC(c3ccc[nH]3)=N/C2=C\NC23CC4CC(CC(C4)C2)C3)cc1
2. Cl.Fc1cc(F)cc(OC2=CC(c3ccc[nH]3)=N/C2=C\NC23CC4CC(CC(C4)C2)C3)c1
3. C(/NC1CCCCCC1)=C1/N=C(c2ccc[nH]2)C2=C1CCCC2.Cl
4. Cl.Clc1ccc(OC2=CC(c3ccc[nH]3)=N/C2=C\NC23CC4CC(CC(C4)C2)C3)cc1

["353 nM", "680 nM", "252 nM", "567 nM"]

The following compounds each have a reported value; give each one's EC50 at 96 h.
1. COC1=CC(c2ccc[nH]2)=N/C1=C\Nc1ccc(Cl)cc1
2. CC1=C(C)/C(=C/NCC2CCCCCC2)N=C1c1ccc[nH]1
3. CCc1ccc(C2=N/C(=C\NC3CCCCCC3)C(C)=C2C)[nH]1.Cl
4. COC1=CC(c2ccc[nH]2)=N/C1=C\N[C@H]1CC[C@H](C(F)(F)F)CC1.Cl
5. CCCCCCCCCCCCCCCCOP(=O)([O-])OCC[N+](C)(C)C
6. COC1=CC(c2ccc(Cc3ccc(OC)cc3)[nH]2)=N/C1=C\NC12CC3CC(CC(C3)C1)C2.Cl
7. CCc1ccc(C2=N/C(=C\NC3CCCCCC3)C(OC)=C2)[nH]1.Cl
8. CCc1c(C)[nH]c(C2=N/C(=C\NC34CC5CC(CC(C5)C3)C4)C(C)=C2C)c1C.Cl

1. > 1000 nM
2. 1600 nM
3. 1140 nM
4. 1100 nM
5. > 100000 nM
6. > 1000 nM
7. 512 nM
8. 675 nM

Report EC50 at 96 h for every entry below.
1. COC1=CC(c2ccc[nH]2)=N/C1=C\Nc1cccc(Cl)c1.Cl
2. COC1=CC(c2ccc[nH]2)=N/C1=C\Nc1ccc2c(c1)OCCO2.Cl

1: 570 nM; 2: > 1000 nM

---

Test: Cytotoxicity against mouse J774.A1 cells assessed as cell survival at 0.1 uM measured after 96 hrs by SYBR Green II dye based analysis relative to control
Assay type: toxicity
Settings: read-out: Survival
The threshold is 60%. Values of viability at 96 h, 0.1 µM beneath it are tagged Met; values meeting or exceeding it are tagged Not met.

* Cc1ccc(N/C=C2\N=C(c3ccc[nH]3)C3=C2CCCC3)cc1.Cl | Not met
* CCc1c(C)[nH]c(C2=N/C(=C\NC34CC5CC(CC(C5)C3)C4)C(C)=C2C)c1C.Cl | Not met
* CCC1=C/C(=C/NC2CCCCCCC2)N=C1c1ccc[nH]1 | Met
* COC1=CC(c2ccc[nH]2)=N/C1=C\NC1CCN(Cc2ccccc2)CC1 | Not met
* Fc1cc(F)cc(OC2=CC(c3ccc[nH]3)=N/C2=C\NC2CCCCCC2)c1 | Not met

In plain terms, does Cl.FC(F)(F)Oc1ccc(C2=CC(c3ccc[nH]3)=N/C2=C\NC23CC4CC(CC(C4)C2)C3)cc1 come in under 60% for viability at 96 h, 0.1 µM?
Not met

Please indicate whether the reported viability at 96 h, 0.1 µM of COC1=CC(c2ccc[nH]2)=N/C1=C\N[C@H]1CC[C@H](C(F)(F)F)CC1.Cl is strictly below 60%.
Not met

Report whether reported viability at 96 h, 0.1 µM is lower than 60% (strictly) for CC1=C(C)/C(=C/Nc2ccc(Oc3ccc(C)cc3)cc2)N=C1c1ccc[nH]1
Not met

Report whether reported viability at 96 h, 0.1 µM is lower than 60% (strictly) for CCC1=C(CC)/C(=C/NC2CCCCCCC2)N=C1c1ccc[nH]1
Met

Regarding CC1=C(C)/C(=C/NC2CCCCCCC2)N=C1c1ccc[nH]1 , kindly confirm whether its viability at 96 h, 0.1 µM is beneath 60%.
Met

---

Assay: Therapeutic index, ratio of EC50 for mouse J774.A1 cells to EC50 for antileishmanial activity against Leishmania mexicana MNYC/BZ/62/M379 amastigotes expressing red-shifted firefly luciferase from integrated ribosomal (28S) RNA locus infected in mouse J774.A1 cells
Format: toxicity, cell-based
Details: read-out: TI
Please provide measured selectivity ratio for the entries that follow.
Answers are plain numbers.

# return selectivity ratio for each item in the list
1. CCC1=C/C(=C\NC23CC4CC(CC(C4)C2)C3)N=C1c1ccc[nH]1
2. COC1=CC(c2ccc[nH]2)=N/C1=C\Nc1ccccc1
3. FC(F)(F)Oc1ccc(OC2=CC(c3ccc[nH]3)=N/C2=C\NC2CCCCC2)cc1
4. FC(F)(F)Oc1ccc(OC2=CC(c3ccc[nH]3)=N/C2=C\N[C@H]2CC[C@H](C(F)(F)F)CC2)cc1

[24, 14, 11.7, 9.6]

---

So I've got a bunch of molecules here, and I need their viability at 96 h, 0.1 µM values.
Experiment: Cytotoxicity against mouse J774.A1 cells assessed as cell survival at 0.1 uM measured after 96 hrs by SYBR Green II dye based analysis relative to control
Type: toxicity
Conditions: read-out: Survival
Reply with the number, then its unit.

• C[C@H]1CC[C@H](N/C=C2\N=C(c3ccc[nH]3)C=C2Oc2ccc(Cl)cc2)CC1 = 80.1%
• CC1=C(C)/C(=C/NCC2CCCCCC2)N=C1c1ccc[nH]1 = 53.2%

Would you be so kind as to report viability at 96 h, 0.1 µM for each listed record?
1. CC1=C(C)/C(=C/Nc2ccc(OC(F)(F)F)cc2)N=C1c1ccc[nH]1
2. CCc1ccc(C2=N/C(=C\NC3CCCCCC3)C(C)=C2C)[nH]1.Cl
3. COC1=CC(c2ccc[nH]2)=N/C1=C\Nc1ccc(Cl)c(Cl)c1.Cl
4. COC1=CC(c2ccc[nH]2)=N/C1=C\NCC1CCCCCC1.Cl
5. CC1=C/C(=C/NC2CCCCCC2)N=C1c1ccc[nH]1

["77.2%", "71.2%", "67.5%", "72.2%", "127%"]

Here are 8 molecules. What values of viability at 96 h, 0.1 µM were reported for them?
1. CCC1=C(CC)/C(=C/N[C@H]2CC[C@H](C)CC2)N=C1c1ccc[nH]1.Cl
2. COC1=CC(c2ccc[nH]2)=N/C1=C\NC1CCCCC1
3. CCC1=C/C(=C\NC23CC4CC(CC(C4)C2)C3)N=C1c1ccc[nH]1
4. COC1=CC(c2ccc(-c3ccc(OC)cc3)[nH]2)=N/C1=C\NC1CCCCCC1.Cl
5. COC1=CC(c2ccc[nH]2)=N/C1=C\Nc1ccccc1OC(F)(F)F
6. C(/NC1CCCCCC1)=C1/N=C(c2ccc[nH]2)C2=C1CCCC2.Cl
7. CC1=C(C)/C(=C/NC23CC4CC(CC(C4)C2)C3)N=C1c1[nH]c(C)cc1C
8. Cl.FC(F)(F)Oc1ccc(OC2=CC(c3ccc[nH]3)=N/C2=C\NC23CC4CC(CC(C4)C2)C3)cc1

1: 87.8%; 2: 88.9%; 3: 50%; 4: 77.3%; 5: 81%; 6: 80%; 7: 93.2%; 8: 80.7%
